Assayed System: T1, monkey SEMA4D, full length, on CHO-K1 cells (CHO-K1 cSEMA4D) (monkey)
T1 construct: whole, on cells; also called monkey SEMA4D recombinant cells
Assay: FACS, CHO-K1 cSEMA4D cells; Ab 2.67 nM
Recorded Endpoint: MFI
Give bare numbers.

Below, each entry is followed by its recorded MFI result.
Binder: 37F11F9 (antibody, V domains shown, Mouse monoclonal antibody purified from hybridoma supernatant on protein A) VH: EVQLQQSGPVLVKPGASVKMSCKASGYTFTDYYMNWVKQSHGKSLEWIGLINPYSGGSTFNQKFKAKATLTVDKSSSSAYMDLNSLTSEDSAVYYCARVGDGYYGVTHGMDYWGQGTSVTVSS VL: DIVMTPSQKFMSTTVGDRVSITCKASQNVGTAVAWYQQKPGQSPTILIYSASNRYTGVPDRFTGSGSGTDFTLTISNMKSEDLADYFCQQYYIYPFTFAAGTKLELK
MFI: 2170
--
Binder: 31C11G2 (antibody, V domains shown, Mouse monoclonal antibody purified from hybridoma supernatant on protein A) VH: EVQLQQSGAELVRPGASVKLSCTASGFNIKDEYIHWVKQRPEQGLEWIGWIDPANGHTEYASRFQAKATITADTSSNTAYLQLSSLTSEDTAVYYCTTGDYDGFVYWGQGTLVTVST VL: QIVLTQSPAIMSASPGEKVTIFCSARSSVSYMYWYQQKPGSSPKPWIYRTSNLASGVPARFSGSGSGTSYSLTISSMEAEDAATYYCQHYHTYPYTFGGGTKLEIK
MFI: 4420
--
Binder: 31G10C5 (antibody, V domains shown, Mouse monoclonal antibody purified from hybridoma supernatant on protein A) VH: EVQLQQSGAELVRPGASVKLSCTASGFNIKDDYIHWVKQRPEQGLEWIGWIDPANGHIEYASNFQAKATITADTSSNTAYLQLSSLTSEDTAVYYCTTGDYDGFTYWGQGTLVTVST VL: QIVLTQSPAIMSASPGEKVTISCSARSSVSYMYWYQQKPGSSPKPWIYRTSNLASGVPARFSGSGSGTSYSLTISSMEAEDAATYYCQHYHTYPYTFGGGTKLEIK
MFI: 4540

Respond only with MFI recorded for 37C4F7 (antibody, V domains shown, Mouse monoclonal antibody purified from hybridoma supernatant on protein A) VH: EFQLQQSGPEVVKPGASVKISCKASGYSFTDYNMNWMKQSKGKSLEWIGVINPNYGTTTYNQNFKGKATLTVDQSSSTAYMQLNSLTSEDSAVYYCARDMYYVYAYYTMDYWGQGTSVTVSS VL: DVVMTQTPLSLPVSLGDQASISCRSSQSLVHSNGHTYLHWYLQRPGQSPTLLIYKVSNRFSGVPDRFSGSGSGTDFTLKISRVEAEDLGVYFCSQGTHVPWTFGGGTKLEIK
1940
